// data source = the supplement of paper PMC10307832

# Test system: NCI-H838
# protocol: relative viability (nuclei count vs DMSO), 5 days (fraction); higher = more cells survive
# measurement-conditions: first compound 0.253 µM
Provide the reported relative viability of each item.
Enter a number only.

Supply recorded relative viability for COc1nc(C)cnc1NS(=O)(=O)c1cccnc1-c1ccc(-c2nnco2)cc1 [Zibotentan] + NC(=O)Nc1cc(-c2cccc(F)c2)sc1C(=O)N[C@H]1CCCNC1 [AZD7762] (partner 0.2 µM) here. 0.909

Look up relative viability of O=c1cc(-c2cccc3c2Sc2ccccc2S3)oc(N2CCOCC2)c1 + CC(C)C[C@H](NC(=O)[C@H](Cc1ccccc1)NC(=O)c1cnccn1)B(O)O [Bortezomib] (partner 0.002 µM) and report it. 1.05

Fill in relative viability for record COc1nc(C)cnc1NS(=O)(=O)c1cccnc1-c1ccc(-c2nnco2)cc1 [Zibotentan] + CS(=O)(=O)N1CCN(Cc2cc3nc(-c4cccc5[nH]ncc45)nc(N4CCOCC4)c3s2)CC1 [Pictilisib] (partner 1 µM) 0.406

Assign relative viability to the following record: COc1nc(C)cnc1NS(=O)(=O)c1cccnc1-c1ccc(-c2nnco2)cc1 [Zibotentan] + O=C(c1cc(Cc2n[nH]c(=O)c3ccccc23)ccc1F)N1CCN(C(=O)C2CC2)CC1 [Olaparib] (partner 8 µM) 0.747

Read off the recorded relative viability for O=c1cc(-c2cccc3c2Sc2ccccc2S3)oc(N2CCOCC2)c1 + C[C@]1(O)C[C@@H](c2nc(-c3ccc4ccc(-c5ccccc5)nc4c3)c3c(N)nccn32)C1 [Linsitinib] (partner 1 µM) 1.49

Return the recorded relative viability value; entry: COc1nc(C)cnc1NS(=O)(=O)c1cccnc1-c1ccc(-c2nnco2)cc1 [Zibotentan] + CC(=O)c1c(C)c2cnc(Nc3ccc(N4CCNCC4)cn3)nc2n(C2CCCC2)c1=O [Palbociclib] (partner 0.5 µM) 0.207

Answer with the recorded relative viability of COc1nc(C)cnc1NS(=O)(=O)c1cccnc1-c1ccc(-c2nnco2)cc1 [Zibotentan] + COc1cccc2cc(-c3nc([C@H]4CC[C@H](C(=O)O)CC4)n4ncnc(N)c34)[nH]c12 [OSI-027] (partner 0.5 µM) only. 0.366

Output relative viability of COc1nc(C)cnc1NS(=O)(=O)c1cccnc1-c1ccc(-c2nnco2)cc1 [Zibotentan] + C[C@]1(O)C[C@@H](c2nc(-c3ccc4ccc(-c5ccccc5)nc4c3)c3c(N)nccn32)C1 [Linsitinib] (partner 1 µM) 0.957

Note relative viability for the compound shown: COc1nc(C)cnc1NS(=O)(=O)c1cccnc1-c1ccc(-c2nnco2)cc1 [Zibotentan] + O=C(CCCCCCC(=O)Nc1ccccc1)NO [Vorinostat] (partner 1 µM) 0.716

Look up and state reported relative viability for O=c1cc(-c2cccc3c2Sc2ccccc2S3)oc(N2CCOCC2)c1 + CS(=O)(=O)N1CCN(Cc2cc3nc(-c4cccc5[nH]ncc45)nc(N4CCOCC4)c3s2)CC1 [Pictilisib] (partner 1 µM) 0.643

###

# System: NCI-H2170
# protocol: relative viability (nuclei count vs DMSO), 5 days (fraction); higher = more cells survive
# measurement-conditions: first compound 0.6325 µM
experimental-endpoint: relative viability

Identify measured relative viability obtained with NCI-H2170 for COCC1(CO)C(=O)C2CCN1CC2 (centres undefined) [PRIMA-1MET] + O=C(CCCCCCC(=O)Nc1ccccc1)NO [Vorinostat] (partner 1 µM) . 0.801

GET relative viability | system: NCI-H2170 | item: COCC1(CO)C(=O)C2CCN1CC2 (centres undefined) [PRIMA-1MET] + CCNC(=O)c1noc(-c2cc(C(C)C)c(O)cc2O)c1-c1ccc(CN2CCOCC2)cc1 [Luminespib] (partner 0.01 µM) 0.545

Answer with relative viability of COCC1(CO)C(=O)C2CCN1CC2 (centres undefined) [PRIMA-1MET] + Nc1nc2[nH]cc(CCc3ccc(C(=O)N[C@@H](CCC(=O)O)C(=O)O)cc3)c2c(=O)[nH]1 [Pemetrexed] (partner 0.2 µM) measured for NCI-H2170. 0.25

State recorded relative viability with NCI-H2170, entry COCC1(CO)C(=O)C2CCN1CC2 (centres undefined) [PRIMA-1MET] + Cc1nc(NC(=O)N2CCC[C@H]2C(N)=O)sc1-c1ccnc(C(C)(C)C(F)(F)F)c1 [Alpelisib] (partner 2 µM) , no comment. 0.749

###

# Tested on: NCI-H2228
# protocol: relative viability (nuclei count vs DMSO), 5 days (fraction); higher = more cells survive
# measurement-conditions: first compound 1 µM
experimental-endpoint: relative viability
Answer field: number only, no words.

Output relative viability of O=c1cc(N2CCOCC2)oc2c(-c3cccc4c3sc3ccccc34)cccc12 + CS(=O)(=O)CCNCc1ccc(-c2ccc3ncnc(Nc4ccc(OCc5cccc(F)c5)c(Cl)c4)c3c2)o1 [Lapatinib] (partner 2 µM) 1.19

Provide relative viability value for the following compound: O=c1cc(N2CCOCC2)oc2c(-c3cccc4c3sc3ccccc34)cccc12 + COc1cc2c(Oc3ccc(NC(=O)C4(C(=O)Nc5ccc(F)cc5)CC4)cc3F)ccnc2cc1OCCCN1CCOCC1 [Foretinib] (partner 0.25 µM) 0.9

State, in one line, measured relative viability of CCN(CC)CCCCNc1ncc2cc(-c3cc(OC)cc(OC)c3)c(NC(=O)NC(C)(C)C)nc2n1 + O=C(c1cc(Cc2n[nH]c(=O)c3ccccc23)ccc1F)N1CCN(C(=O)C2CC2)CC1 [Olaparib] (partner 8 µM) 0.571

State, in one line, measured relative viability of CCN(CC)CCCCNc1ncc2cc(-c3cc(OC)cc(OC)c3)c(NC(=O)NC(C)(C)C)nc2n1 + COc1cc2c(Oc3ccc(NC(=O)C4(C(=O)Nc5ccc(F)cc5)CC4)cc3F)ccnc2cc1OCCCN1CCOCC1 [Foretinib] (partner 0.25 µM) 0.635

###

# Test system: HCC-15
# protocol: relative viability (nuclei count vs DMSO), 5 days (fraction); higher = more cells survive
# measurement-conditions: first compound 20 µM
experimental-endpoint: relative viability
The answer should be written as a number, with no unit following it.

Note relative viability for the compound shown: COCC1(CO)C(=O)C2CCN1CC2 (stereo not given) [PRIMA-1MET] + Nc1nc2[nH]cc(CCc3ccc(C(=O)N[C@@H](CCC(=O)O)C(=O)O)cc3)c2c(=O)[nH]1 [Pemetrexed] (partner 0.2 µM) 0.217

Given the compound COCC1(CO)C(=O)C2CCN1CC2 (stereo not given) [PRIMA-1MET] + COc1cc2c(Oc3ccc(NC(=O)C4(C(=O)Nc5ccc(F)cc5)CC4)cc3F)ccnc2cc1OCCCN1CCOCC1 [Foretinib] (partner 0.25 µM) , write its reported relative viability. 0.555

Note relative viability for the compound shown: COCC1(CO)C(=O)C2CCN1CC2 (stereo not given) [PRIMA-1MET] + COc1cccc2cc(-c3nc([C@H]4CC[C@H](C(=O)O)CC4)n4ncnc(N)c34)[nH]c12 [OSI-027] (partner 0.5 µM) 0.439

Return relative viability (reported value) for this compound: COCC1(CO)C(=O)C2CCN1CC2 (stereo not given) [PRIMA-1MET] + Nc1ncn([C@H]2C[C@H](O)[C@@H](CO)O2)c(=O)n1 [Decitabine] (partner 2 µM) 0.563

Please report relative viability for the following compound: COCC1(CO)C(=O)C2CCN1CC2 (stereo not given) [PRIMA-1MET] + CS(=O)(=O)N1CCN(Cc2cc3nc(-c4cccc5[nH]ncc45)nc(N4CCOCC4)c3s2)CC1 [Pictilisib] (partner 1 µM) 0.618

###

# Test system: HCC-366
# protocol: relative viability (nuclei count vs DMSO), 5 days (fraction); higher = more cells survive
# measurement-conditions: first compound 0.03162 µM
Provide the reported relative viability of each item.
Lab note: record the figure alone, no unit after it.

Provide one value: measured relative viability of O=c1cc(N2CCOCC2)oc2c(-c3cccc4c3sc3ccccc34)cccc12 + CC(=O)Nc1cccc(-n2c(=O)n(C3CC3)c(=O)c3c(Nc4ccc(I)cc4F)n(C)c(=O)c(C)c32)c1 [Trametinib] (partner 0.02 µM) 0.355

Provide only the value of recorded relative viability for CCN(CC)CCCCNc1ncc2cc(-c3cc(OC)cc(OC)c3)c(NC(=O)NC(C)(C)C)nc2n1 + Cc1cc(Nc2cc(N3CCN(C)CC3)nc(Sc3ccc(NC(=O)C4CC4)cc3)n2)n[nH]1 [Tozasertib] (partner 0.1 µM) 0.135

###

# System: LOU-NH91
# protocol: relative viability (nuclei count vs DMSO), 5 days (fraction); higher = more cells survive
# measurement-conditions: first compound 0.03162 µM
experimental-endpoint: relative viability
Answer with a bare number; do not write a unit.

Fill in reported relative viability for this entry: O=c1cc(N2CCOCC2)oc2c(-c3cccc4c3sc3ccccc34)cccc12 + CC(=O)c1c(C)c2cnc(Nc3ccc(N4CCNCC4)cn3)nc2n(C2CCCC2)c1=O [Palbociclib] (partner 0.5 µM) 0.527

Return reported relative viability. Input molecule: CCN(CC)CCCCNc1ncc2cc(-c3cc(OC)cc(OC)c3)c(NC(=O)NC(C)(C)C)nc2n1 + C[C@]1(O)C[C@@H](c2nc(-c3ccc4ccc(-c5ccccc5)nc4c3)c3c(N)nccn32)C1 [Linsitinib] (partner 1 µM) 0.938

Complete the entry with relative viability for CCN(CC)CCCCNc1ncc2cc(-c3cc(OC)cc(OC)c3)c(NC(=O)NC(C)(C)C)nc2n1 + CC1(C)CCC(c2ccc(Cl)cc2)=C(CN2CCN(c3ccc(C(=O)NS(=O)(=O)c4ccc(N[C@H](CCN5CCOCC5)CSc5ccccc5)c(S(=O)(=O)C(F)(F)F)c4)cc3)CC2)C1 [Navitoclax] (partner 0.5 µM) 0.674

Please give the documented relative viability of CCN(CC)CCCCNc1ncc2cc(-c3cc(OC)cc(OC)c3)c(NC(=O)NC(C)(C)C)nc2n1 + Nc1nc2[nH]cc(CCc3ccc(C(=O)N[C@@H](CCC(=O)O)C(=O)O)cc3)c2c(=O)[nH]1 [Pemetrexed] (partner 0.2 µM) 0.376
